The values you see were collected from PubChem BioAssay.

assay: anti-His antibody binders, primary screen, artefact control for SMM control protein annotation, biochemical, small-molecule microarray, 635 nm fluorescence (AID 1128); details: anti-His Alexa647 antibody binding, higher = more signal;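 also: score merges feature fluorescence with signal-to-noise for each printed compound spot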
The following compounds are listed with their measured composite z-score values.

| compound | composite z-score |
| --- | --- |
| CCC(=O)[C@]12O[C@@]3([C@@H]4C(=O)OCC[C@@H]41)N(Cc1ccccc1)C(C)=C(C(=O)OC)[C@@H](c1ccccc1)N3C2=O | -0.97 |
| COc1ccc(C(O)C2C=CC3C(=O)N(C)C(=O)C3N2N2CCCCC2)cc1OCc1ccccc1 (stereo not drawn) | 1.31 |
| CO[C@]12C=C(Br)[C@@H](C[C@@H]1c1ccccc1)[C@@]1(CO1)C2=O | -0.22 |
| CCN1C(C)=C(C(=O)OC)[C@@H](c2ccccc2)N2C(=O)[C@](O)(C(=O)OC)[C@@H](c3ccccc3)C(C(C)=O)=C12 | 0.189 |
| CCCC=C(CCC)[C@@H](NC(=O)c1ccccc1)c1ccccc1 | -0.697 |
| CC(C)C[C@@H]1NC(=O)[C@H]2C[C@@H](C(=O)NCCCCCC[N+](C)(C)C)[C@@H](c3ccc(O)cc3)N2C1=O | 2.28 |
| CO[C@H]1O[C@H](CO)[C@@H](OC(=O)Nc2ccccc2)[C@H](OC(=O)Nc2ccc3c(c2)OCO3)[C@@H]1OC(=O)Nc1ccc2c(c1)OCO2 | 2.53 |
| CO[C@@H]1COC(=O)CC=C[C@@H](C)[C@H](OC)COC(=O)CC=C[C@H]1C | 0.0112 |
| O=C1OCC=C[C@H]2OC34C=CCN(Cc5ccccc5)C(=O)[C@H]3N(CCO)C(=O)[C@@H]4[C@@H]12 (stereo partly drawn) | -0.29 |
| CC(=O)NCCCC[C@@H]1NC(=O)[C@@H]2C[C@H](C(=O)NCCCCCNC(=O)CS)[C@H](c3ccc(O)cc3)N2C1=O | 0.133 |
| COCCOC(=O)N1C(=O)[C@@]2(c3cc(C#CC4=CCCCC4)ccc31)[C@H](C(=O)NC[C@H](O)c1ccccc1)[C@H]1C(=O)O[C@H](c3ccccc3)[C@H](c3ccccc3)N1[C@@H]2c1ccccc1OCCO | 0.69 |
| O=C/C=C/c1ccccc1Cl | -0.761 |
| O=C(O)[C@@H]1Cc2c([nH]c3ccccc23)[C@@H](c2ccccc2)N1 | 0.247 |
| C[C@H]1COC(=O)[C@H](Cc2ccccc2)NC(=O)[C@@H](C)COC(=O)[C@H](Cc2ccccc2)NC1=O | 1.46 |
| CC(C)[Si](OCCCNS(=O)(=O)c1ccc(Br)cc1)(C(C)C)C(C)C | 0.479 |
| C=CCNC(=O)[C@H]1[C@@H]2C(=O)O[C@@H](c3ccccc3)[C@@H](c3ccccc3)N2[C@@H](c2ccc(O)cc2)[C@]12C(=O)Nc1ccc(C#CCNC(N)=O)cc12 | -1.09 |
| [N-]=[N+]=NCc1ccccc1C[C@@]1(C(=O)O)N=C(c2ccc(OCCCO)cc2)O[C@@H]1c1ccccc1N=[N+]=[N-] | 1.36 |
| CC(C)[C@H]1NC(=O)[C@@]23C(=O)N[C@@H](Cc4ccccc4)C2[C@H](C)[C@@]2(C)O[C@H]2C3/C=C/C/C=C\CNC(=O)[C@H](C)NC1=O (stereo partly drawn) | 0.661 |
| COC(=O)C[C@H]1O[C@]2(C(=O)N(C)c3ccccc32)[C@@H](C)[C@@H]1[Si](C)(C)c1ccc(OC)cc1 | 0.284 |
| O=C1C2C=CC(C(O)C#Cc3ccccc3)N(Nc3ccccc3)C2C(=O)N1c1ccccc1 (stereo not drawn) | 1.1 |
| COc1ccc([Si](C)(C)[C@H]2[C@H](CCO)O[C@@]3(C(=O)N(Cc4ccccc4)c4ccc(N5C(=O)c6cccc7cccc5c67)cc43)[C@@H]2C)cc1 | 1.38 |
| C[C@@H]1NC(=O)CC=C[C@@H](C)[C@@H]2C=C[C@H](O)[C@@H](COC(=O)[C@H](C)NC(=O)CC=C[C@@H](C)[C@@H]3C=C[C@H](O)[C@@H](COC1=O)O3)O2 | -0.689 |
| C[C@H]1NC(=O)[C@@H](C)NC(=O)[C@@]23C(=O)N[C@@H](Cc4ccccc4)C2[C@H](C)[C@@]2(C)O[C@H]2C3/C=C/C/C=C\CNC1=O (stereo partly drawn) | -0.759 |
| O=C(NCC(O)CO)[C@]1(Cc2ccccc2)N=C(c2ccc(OCCCO)cc2)O[C@@H]1c1ccccc1 (stereo partly drawn) | 0.713 |
| O=C1C[C@@](C(=O)NCCN2CCOCC2)(c2ccc([N+](=O)[O-])cc2)[C@@H](c2ccc(CO)cc2)N1C1CCCCC1 | 0.926 |
| COCCOC(=O)N1C(=O)[C@@]2(c3cc(C#CCCO)ccc31)[C@H](c1ccc(O)cc1)N1[C@H](c3ccccc3)[C@H](c3ccccc3)OC(=O)[C@H]1[C@@H]2C(=O)Nc1nc2ccccc2s1 | 0.607 |
| N#Cc1ccc(NN2C(C(O)c3ccc(I)cc3)C=CC3C(=O)N(c4ccccc4)C(=O)C32)cc1 (stereo not drawn) | 1.33 |
| COCCOC(=O)N1C(=O)[C@@]2(c3cc(C#CCNC(N)=O)ccc31)[C@H](c1ccccc1OCCO)N1[C@H](c3ccccc3)[C@H](c3ccccc3)OC(=O)[C@H]1[C@@H]2C(=O)NC[C@H](O)c1ccccc1 | 1.06 |
